Where these numbers come from: paper PMC5405074

Each entry below carries its recorded tissue uptake at 4 h.
Assay: Biodistribution of ^111In-labeled peptides in B16-F1 melanoma-bearing mice
Format: in vivo, mouse (B6D2F1)
Details: female, B6D2F1, mouse, tumor, iv, total radioactivity; ^111In-labeled peptide, 185 kBq i.v., 4 h; mean ± SEM of three experiments, n = 5 animals each; read-out: Tumor uptake
Non-standard residues stand in square brackets, D forms with d. Residues, ends and D or L forms follow the SMILES beside them. *: point of attachment. DOTA = O=C(O)CN1CCN(CC(=O)O)CCN(CC(=O)*)CCN(CC(=O)O)CC1; pY = N[C@@H](Cc1ccc(OP(=O)(O)O)cc1)C(=O)O; Nle = CCCC[C@H](N)C(=O)O
quantity_name: tissue uptake at 4 h

* CCCC[C@H](NC(C)=O)C(=O)N[C@@H](CC(=O)O)C(=O)N[C@@H](Cc1c[nH]cn1)C(=O)N[C@H](Cc1ccccc1)C(=O)N[C@@H](CCCNC(=N)N)C(=O)N[C@@H](Cc1c[nH]c2ccccc12)C(=O)NCC(=O)N[C@@H](CCCCNC(=O)CN1CCN(CC(=O)O)CCN(CC(=O)O)CCN(CC(=O)O)CC1)C(=O)N[C@H](CC(=O)O)C(=O)N[C@H](CC(=O)O)C(=O)O [[^111In]DOTA-NAP-D-Asp-D-Asp, metal not drawn] (Ac-[Nle]DH[dF]RWGK(DOTA)[dD][dD]-OH; N-terminus and C-terminus assumed) | 1.93 %ID/g
* CCCC[C@H](NC(=O)[C@H](Cc1ccc(OP(=O)(O)O)cc1)NC(=O)CNC(=O)CN1CCN(CC(=O)O)CCN(CC(=O)O)CCN(CC(=O)O)CC1)C(=O)N[C@@H](CC(=O)O)C(=O)N[C@@H](Cc1c[nH]cn1)C(=O)N[C@H](Cc1ccccc1)C(=O)N[C@@H](CCCNC(=N)N)C(=O)N[C@@H](Cc1c[nH]c2ccccc12)C(N)=O [[^111In]DOTA-Phospho-MSH2-9, metal not drawn] ({DOTA}-G[pY][Nle]DH[dF]RW-NH2) | 7.33 %ID/g
* CCCC[C@H](NC(C)=O)C(=O)N[C@@H](CC(=O)O)C(=O)N[C@@H](Cc1c[nH]cn1)C(=O)N[C@H](Cc1ccccc1)C(=O)N[C@@H](CCCNC(=N)N)C(=O)N[C@@H](Cc1c[nH]c2ccccc12)C(=O)NCC(=O)N[C@@H](CCCCNC(=O)CN1CCN(CC(=O)O)CCN(CC(=O)O)CCN(CC(=O)O)CC1)C(N)=O [[^111In]DOTA-NAP-amide, metal not drawn, reference compound] | 7.77 %ID/g
